# System: H1299
# protocol details: difference in mean normalized H2B-mRuby nuclear fluorescence intensity relative to DMSO control (normalized intensity difference (DMSO = 0)); higher = stronger increase in transgene reporter fluorescence
# run conditions: concentration: 250; 24 h
# Lookup of reported difference keyed by entry
// no unit, no text: just the number

Consider the reported difference for these compounds:
CO[C@H]1C[C@@H]2CC[C@@H](C)[C@@](O)(O2)C(=O)C(=O)N2CCCC[C@H]2C(=O)O[C@H]([C@H](C)C[C@@H]2CC[C@@H](O)[C@H](OC)C2)CC(=O)[C@H](C)/C=C(\C)[C@@H](O)[C@@H](OC)C(=O)[C@H](C)C[C@H](C)/C=C/C=C/C=C/1C (concentration unit: nM)	0.0406
COC(=O)c1ccc([C@H]2c3[nH]c4ccccc4c3C[C@H](C(=O)OC)N2C(=O)CCl)cc1 (concentration unit: nM)	0.00407
COc1cccc2c1C(=O)c1c(O)c3c(c(O)c1C2=O)C[C@@](O)(C(=O)CO)C[C@@H]3O[C@H]1C[C@H](N)[C@H](O)[C@H](C)O1 (concentration unit: nM)	0.0484
Cn1c(=O)n(-c2ccc(C(C)(C)C#N)cc2)c2c3cc(-c4cnc5ccccc5c4)ccc3ncc21 (concentration unit: nM)	0.0684

Okay, now this compound:
Please give the measured difference for this compound: COc1cc(Nc2ncc3c(n2)-c2ccc(Cl)cc2C(c2c(F)cccc2OC)=NC3)ccc1C(=O)O (concentration unit: nM) 0.00737
